Test system: HT29 colon
test.method.notes: NCI-60 one-dose screen, 48 h
recorded.conditions: 10 µM unless noted
About 83,000 compounds went through this panel and 20% of them were active in at least one assay; those are over-represented in the sample as a whole. Activity calls are given as the source filed them. The calls were made as follows: active = growth percent below 10; inactive = the rest.
Field 'call' accepts 1 (active), -1 (inactive)

[[record]]
chemical_string = "c1ccc(-c2c(-c3ccccc3)[n+](Cc3ccc4ccccc4c3)c(-c3cccc4ccccc34)n2Cc2ccc3ccccc3c2)cc1"
system = "HT29 colon"
qualitative_label = 1

[[record]]
chemical_string = "COc1ccc(C(=O)CC#N)cc1"
system = "HT29 colon"
qualitative_label = -1

[[record]]
chemical_string = "CCCCCCCCOc1ccc(/C=N/Nc2cc(C)nc3ccc(Br)cc23)cc1"
system = "HT29 colon"
qualitative_label = -1

[[record]]
chemical_string = "COc1cc2cc(Oc3cccc(NC(=O)Nc4cc(C(F)(F)F)cc(C(F)(F)F)c4)c3)c(C)nc2cc1OC"
system = "HT29 colon"
qualitative_label = 1


--- query ---
query: Hello, I am checking results. What call was entered for `COc1ccc(/C=C/c2nc(Nc3ccc(Cl)cc3)c3ccccc3n2)cc1` ?
result: -1

###

Tested on: SR leukemia
test.method.notes: NCI-60 one-dose screen, 48 h (100 = growth as untreated, 0 = no growth, -100 = all killed)
recorded.conditions: 10 µM unless noted
Description: Growth inhibition of the SR human tumor cell line is measured as a screen for anti-cancer activity. Cells are grown in 96 well plates and exposed to the test compound for 48 hours. Compounds are tested at a single concentration, which is 10^-5 M for most compounds. The reported endpoint is percent growth (GI% or GIPRCNT), where numbers from 0 - 100% represent growth inhibition, and numbers from -100% - 0 represent cell death. For example, a value of 40 represents 60% growth inhibition. […]
The panel holds about 83,000 compounds, 20% with a hit somewhere; the sample as a whole holds those more often.
quantity: growth (%)
A number alone suffices; assume %.

Take a look at these entries with their results.
[[record]]
compound = "O=C(c1nc2ccccc2[nH]1)C1C(c2ccc(Cl)cc2)C2CC3CCCC[C@H]3N2[C@@]12C(=O)Nc1cc(Cl)ccc12 (stereo partly specified)"
observed_result = 39

[[record]]
compound = "O=C(CCN1CCCC1)Nc1ccc2c(NCCCCc3ccccc3)c3ccccc3nc2c1"
observed_result = -29

[[record]]
compound = "Cn1c(-c2c(N)n(CCCN3CCOCC3)c3nc(C#N)c(C#N)nc23)nc2ccccc21"
observed_result = -57.7

[[record]]
compound = "COc1cc2c(c(O)c1Cl)C(=O)c1c(O)cc(C[C@H](C)O)cc1[C@H]2[C@H]1c2cc(C[C@H](C)O)cc(O)c2C(=O)c2c1cc(OC)c(Cl)c2O"
observed_result = 12.3

[[record]]
compound = "CC1(C)NCCC[C@]2(C)[C@H]3CC(=O)[C@H]4[C@@H]5C[C@](C)(CO)CC[C@]5(C)CC[C@@]4(C)[C@]3(C)CC[C@@H]12"
observed_result = 82


query: // fetch growth given entry Cc1ccc(C(=O)/C(=C\c2ccc([N+](=O)[O-])cc2)S(=O)Cc2ccc(Cl)cc2)cc1 (stereo unspecified)
result: 6.07

query: // fetch growth given entry `O=C(O)c1ccc(-c2nn(-c3ccc(C(F)(F)F)cc3)cc2CNc2ccc(Oc3ccccc3)cc2)cc1`
result: 60.7

query: // fetch growth given entry `O=C(/C(=C/c1ccc([N+](=O)[O-])cc1)SCc1ccc(F)cc1)c1ccc(F)cc1`
result: 6.69

###

Test system: HOP-62 NSCLC
test.method.notes: NCI-60 one-dose screen, 48 h
recorded.conditions: 10 µM unless noted
Compounds without any hit were thinned out: in the full panel of roughly 83,000, 20% have a hit. Activity calls are given as the source filed them. Rule for the calls: active = growth percent below 10; inactive = the rest.
Field 'call' accepts t for active, f for inactive

[[record]]
chemical_string = "NCCCCCCNc1cc(-c2cccc(OC(F)(F)F)c2)nc2ccc(N3CCCC3)cc12"
qualitative_label = "t"

[[record]]
chemical_string = "O=[N+]([O-])c1cc(Br)c2cccc3c2c1CC3"
qualitative_label = "f"

[[record]]
chemical_string = "O=Cc1cc2ccccc2nc1Oc1ccc(C(F)(F)F)cc1"
qualitative_label = "f"

[[record]]
chemical_string = "C=C1C(=O)O[C@H]2[C@H]1CC/C(COC(=O)NCCc1c[nH]c3ccc(OC)cc13)=C\\CC[C@@]1(C)O[C@@H]21"
qualitative_label = "f"

[[record]]
chemical_string = "Cc1ncc(C(=O)Nc2ccc(CN3CCN(C)CC3)c(C(F)(F)F)c2)cc1C#Cc1cnc(N)cc1C#N"
qualitative_label = "f"


query: Hello, I am checking results. What call was entered for `COc1ccc2c(c1)oc1c(C)c3c(c(C)c12)C(=O)N(N)C3=O` ?
result: f

query: Hello, I am checking results. What call was entered for `COc1ccc2[nH]c(O)c(/C=c3/cc4c(c(-c5ccc(F)cc5)n3)=Nc3ccccc3-4)c2c1` ?
result: f

query: Hello, I am checking results. What call was entered for `COc1ccc(C(=O)c2cc(OC)c(OC)c(OC)c2)cc1O` ?
result: f

query: Hello, I am checking results. What call was entered for `CC(=O)Oc1ccc(/C=N/NC(N)=S)nc1` ?
result: f

query: Hello, I am checking results. What call was entered for `CCN(Cc1ccccc1)c1ccc(C=O)cc1` ?
result: f

###

The entries below are paired with their reported growth.
Test system: NCI-H23 lung
test.method.notes: NCI-60 one-dose screen, 48 h (100 = growth as untreated, 0 = no growth, -100 = all killed)
recorded.conditions: 10 µM unless noted
This is part of a sample that, as a whole, favours compounds with a hit. Of some 83,000 tested, about 20% had one in any assay.
A number alone suffices; assume %.

query: // fetch growth given entry `C=C1C(=O)O[C@H]2[C@H]1CC/C(COC(=O)NCCc1c[nH]c3ccc(OC)cc13)=C\CC[C@@]1(C)O[C@@H]21`
result: 73.9

###

Tested on: HCT-15 colon
test.method.notes: NCI-60 one-dose screen, 48 h
recorded.conditions: 10 µM unless noted
This is part of a sample that, as a whole, favours compounds with a hit. Of some 83,000 tested, about 20% had one in any assay. Calls of active or inactive are those of the source. The calls were made as follows: active = growth percent below 10; inactive = the rest.
Field 'call' accepts active, inactive

Example entries begin here.
[[record]]
compound = "Cc1ccc(NC(C(=O)c2ccccc2)c2ccccc2)cc1 (stereo not given)"
system = "HCT-15 colon"
qualitative_label = "inactive"

[[record]]
compound = "CCOC(=O)/C(C#N)=C1/NNC(=Nc2cccnc2)S1"
system = "HCT-15 colon"
qualitative_label = "inactive"

[[record]]
compound = "CCCCCCNC(=O)Oc1ccc(/C(=C(\\C)c2ccccc2)c2ccc(OCCCN(C)C)cc2)cc1"
system = "HCT-15 colon"
qualitative_label = "inactive"

[[record]]
compound = "COc1cc(C2C3=C(COC3=O)N(CCO)c3cc4c(cc32)CCC4)cc(OC)c1OC (stereo not given)"
system = "HCT-15 colon"
qualitative_label = "inactive"


--- query ---
query: Hello, I am checking results. What call was entered for `O=C1/C=C/[C@@H](O)[C@@H]2C[C@@H](O)C[C@H]2/C=C/CCC[C@H](CCc2cccc3ccccc23)O1` ?
result: active

###

Test system: DU-145 prostate
test.method.notes: NCI-60 one-dose screen, 48 h (100 = growth as untreated, 0 = no growth, -100 = all killed)
recorded.conditions: 10 µM unless noted
The panel holds about 83,000 compounds, 20% with a hit somewhere; the sample as a whole holds those more often.
Kindly return class 1 if reported growth is no lower than 40%; return class 0 if it is lower.

query: Test whether the compound `Cc1ccc(-n2cc(-c3ccccc3)c3c2N=NN2CCN=C32)cc1` records growth of 40% or higher.
result: class 1

###

System: HCT-15 colon
test.method.notes: NCI-60 one-dose screen, 48 h
recorded.conditions: 10 µM unless noted
Protocol: Growth inhibition of the HCT-15 human tumor cell line is measured as a screen for anti-cancer activity. Cells are grown in 96 well plates and exposed to the test compound for 48 hours. Compounds are tested at a single concentration, which is 10^-5 M for most compounds. The reported endpoint is percent growth (GI% or GIPRCNT), where numbers from 0 - 100% represent growth inhibition, and numbers from -100% - 0 represent cell death. For example, a value of 40 represents 60% growth inhibition. […]
About 83,000 compounds went through this panel and 20% of them were active in at least one assay; those are over-represented in the sample as a whole. Activity calls are given as the source filed them. The calls were made as follows: active = growth percent below 10; inactive = the rest.
Field 'call' accepts yes (1) for active, no (0) for inactive

Example entries begin here.
[[record]]
compound = "CN1CCC(=C(c2ccccc2)c2ccccc2)C(c2ccccc2)C1 (stereo not given)"
system = "HCT-15 colon"
qualitative_label = "no (0)"

[[record]]
compound = "COc1cc(/C=C\\c2cc(/C=C\\c3ccc(O)c(OC)c3)n(C(=O)COc3ccccc3)n2)ccc1O"
system = "HCT-15 colon"
qualitative_label = "yes (1)"

[[record]]
compound = "CC(=O)[C@H]1CCC/C=C/[C@@H]2C[C@H](O)C[C@H]2[C@H](O)/C=C/C(=O)O1"
system = "HCT-15 colon"
qualitative_label = "no (0)"

[[record]]
compound = "NC1[C@H](c2c[nH]c3ccccc23)c2c([nH]c3ccccc23)[C@H]1c1c[nH]c2ccccc12 (stereo not given in full)"
system = "HCT-15 colon"
qualitative_label = "no (0)"

[[record]]
compound = "C=CC(=O)N[C@@H](/C=C/C(=O)OCC)Cc1ccc(-c2cc(Cl)cc(Cl)c2)cc1"
system = "HCT-15 colon"
qualitative_label = "no (0)"

[[record]]
compound = "N#Cc1cc(-c2nc3ccccc3s2)c(=O)n(NS(=O)(=O)c2ccccc2)c1N"
system = "HCT-15 colon"
qualitative_label = "no (0)"


query: Hello, I am checking results. What call was entered for `Cc1cc2nc3c4cccc(O)c4n(CCN(C)C)c3nc2cc1C` ?
result: no (0)

query: Hello, I am checking results. What call was entered for `Cc1nn(-c2ccccc2)c(Cl)c1/C=C/C(=O)c1ccc(F)cc1` ?
result: no (0)

query: Hello, I am checking results. What call was entered for `O=C(CCN1CCCC1)Nc1ccc2c(NCCCCc3ccccc3)c3ccccc3nc2c1` ?
result: no (0)

query: Hello, I am checking results. What call was entered for `N#Cc1c(NC(=O)NCc2ccccc2)sc2c1CCCC2` ?
result: no (0)
